target: Glycogen phosphorylase, liver form (Homo sapiens, UniProt P06737)
Sequence (P06737 whole entry): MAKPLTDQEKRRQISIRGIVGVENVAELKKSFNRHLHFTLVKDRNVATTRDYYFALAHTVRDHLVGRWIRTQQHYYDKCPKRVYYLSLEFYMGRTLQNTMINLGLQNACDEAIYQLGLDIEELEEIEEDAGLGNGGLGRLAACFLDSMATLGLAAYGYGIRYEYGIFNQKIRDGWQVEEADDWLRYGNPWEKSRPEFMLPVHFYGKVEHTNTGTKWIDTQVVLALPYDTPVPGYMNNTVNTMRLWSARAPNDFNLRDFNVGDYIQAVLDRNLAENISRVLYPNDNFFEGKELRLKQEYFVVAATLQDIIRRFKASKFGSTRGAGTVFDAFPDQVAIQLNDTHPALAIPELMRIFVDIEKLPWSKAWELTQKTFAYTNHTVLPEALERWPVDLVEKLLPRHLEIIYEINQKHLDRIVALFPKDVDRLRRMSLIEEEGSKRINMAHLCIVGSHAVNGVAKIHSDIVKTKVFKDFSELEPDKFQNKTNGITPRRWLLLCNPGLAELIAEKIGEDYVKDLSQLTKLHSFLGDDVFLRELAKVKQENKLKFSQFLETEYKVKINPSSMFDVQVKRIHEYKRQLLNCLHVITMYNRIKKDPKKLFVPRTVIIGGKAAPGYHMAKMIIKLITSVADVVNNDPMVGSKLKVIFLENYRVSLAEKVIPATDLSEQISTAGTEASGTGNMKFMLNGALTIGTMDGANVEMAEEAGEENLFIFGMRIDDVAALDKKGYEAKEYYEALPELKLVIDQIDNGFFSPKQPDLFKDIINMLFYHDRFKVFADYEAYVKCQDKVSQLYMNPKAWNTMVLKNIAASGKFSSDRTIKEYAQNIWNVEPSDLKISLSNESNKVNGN
testProtocol: Inhibitory concentration against glycogen phosphorylase
assayMetric: IC50 (nM)

Here are 3 molecules together with their reported answers.
Tell me IC50 of CC(CCO)N(C(=O)CNC(=O)c1cc2cc(Cl)ccc2[nH]1)C1CCCC1 (configuration not stated) when tested on Glycogen phosphorylase, liver form (Homo sapiens, UniProt P06737).
210

Tell me IC50 of CN(C(=O)CNC(=O)c1cc2cc(Cl)ccc2[nH]1)C1CCC1 when tested on Glycogen phosphorylase, liver form (Homo sapiens, UniProt P06737).
170

Tell me IC50 of CCCN(C(=O)CNC(=O)c1cc2cc(Cl)ccc2[nH]1)C1CCCC1 when tested on Glycogen phosphorylase, liver form (Homo sapiens, UniProt P06737).
340

[1] CC(C)CN(CCO)C(=O)CNC(=O)c1cc2cc(Cl)ccc2[nH]1
[2] O=C(NCC(=O)N(CC(O)CO)C1CCCC1)c1cc2cc(Cl)ccc2[nH]1 (configuration not stated)
[3] O=C(NCC(=O)N(CCO)C1CCCCC1)c1cc2cc(Cl)ccc2[nH]1
Ascending by IC50, please. Order the labels as requested and list them.
2, 3, 1

[I] COCCN(C(=O)CNC(=O)c1cc2cc(Cl)ccc2[nH]1)C1CCCC1
[II] CN(C(=O)CNC(=O)c1cc2cc(Cl)ccc2[nH]1)C1CCCC1
Param metric = IC50; output whichever of I , II has the minimum value. Bench note: the answer is the label of the chosen record.
II
(II: 55 nM, I: 200 nM)

[I] O=C(NCC(=O)N(CCOCCO)C1CCCC1)c1cc2cc(Cl)ccc2[nH]1
[II] CCCCN(C)C(=O)CNC(=O)c1cc2cc(Cl)ccc2[nH]1
[III] C=CCN(C(=O)CNC(=O)c1cc2cc(Cl)ccc2[nH]1)C1CCCC1
Highest IC50 first, then in falling order down to the smallest. Order the labels as requested and list them.
I, II, III

[A] O=C(NCC(=O)N(CCO)Cc1cccnc1)c1cc2cc(Cl)ccc2[nH]1
[B] CN(C(=O)CNC(=O)c1cc2cc(Cl)ccc2[nH]1)C1CC1
[C] O=C(NCC(=O)N(CCOCc1ccccc1)C1CCCC1)c1cc2cc(Cl)ccc2[nH]1
[D] O=C(NCC(=O)N(CCO)Cc1ccco1)c1cc2cc(Cl)ccc2[nH]1
Ascending by IC50, please. Order the labels as requested and list them.
D, B, A, C
(D: 260 nM, B: 670 nM, A: 1100 nM, C: 1600 nM)

[1] CCOC(=O)CN(C(=O)CNC(=O)c1cc2cc(Cl)ccc2[nH]1)C1CCCC1
[2] O=C(NCC(=O)N(CCO)C1CCCC1)c1cc2cc(Cl)ccc2[nH]1
Param metric = IC50; output whichever of 1 , 2 has the minimum value. Bench note: the answer is the label of the chosen record.
2
(2: 57 nM, 1: 530 nM)

[A] NC(=O)CN(C(=O)CNC(=O)c1cc2cc(Cl)ccc2[nH]1)C1CCCC1
[B] CCN(C(=O)CNC(=O)c1cc2cc(Cl)ccc2[nH]1)C1CCCC1
Param metric = IC50; output whichever of A , B has the minimum value. Bench note: the answer is the label of the chosen record.
B
(B: 210 nM, A: 4600 nM)

[I] O=C(NCC(=O)N(CCO)C1CCSC1)c1cc2cc(Cl)ccc2[nH]1 (configuration not stated)
[II] O=C(NCC(=O)N(CCO)C1CCCCCCC1)c1cc2cc(Cl)ccc2[nH]1
When I and II are compared, which has the higher number for IC50? Bench note: the answer is the label of the chosen record.
I
(I: 340 nM, II: 32 nM)
